As shown below, each of these binders has a reported koff value.
# SYSTEM UNDER TEST: T1, recombinant human CD70 (AviTag, polyhistidine tag and chicken tenascin trimerization domain fused to the … (chicken; human, UniProt P10039 110-139, limits assumed)
# T1 construct: domain: trimerization domain; Expressed in Expi293, purified by IMAC and SEC; Copies 3 is inferred from the trimerization domain; not shown: AviTag; polyhistidine tag
# T1 sequence: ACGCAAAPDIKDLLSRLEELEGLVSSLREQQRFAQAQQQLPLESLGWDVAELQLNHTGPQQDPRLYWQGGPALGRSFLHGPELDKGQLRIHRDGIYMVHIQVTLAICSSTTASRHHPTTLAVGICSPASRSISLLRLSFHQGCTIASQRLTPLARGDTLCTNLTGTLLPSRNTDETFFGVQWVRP
# METHOD SUMMARY: SPR (Biacore 8K, 37 C): CD70 captured via anti-AviTag antibody on C1 chip, scFv-Fc as analyte; 1:1 Langmuir fit

# BINDER, METRIC, OBSERVED MEASUREMENT
rows = [
    ("8C8 anti-CD70 scFv-Fc fusion (Fc fusion, scFv-Fc expressed in Expi293; not shown: part of the hinge and Fc from a modified human IgG2) EVQLVESGGGLVKPGGSLRLSCVASGFTFSSYSMNWVRQFPGKGLEWVSSISTSSNYIHYADSLQGRFTISRDNAKNSLYLQMSSLRVEDTAVYYCVRDKGTTLTNWYFDLWGRGTLVTVSSGGGGSGGGGSGGGGSGGGGSDMQMTQSPSSLSASVGDRVTLTCRASQGISNYLAWFQLKPGKVPKLLIYAASTLQSGVPSRFSGSGSGTDFALTISSLQPEDVATYYCQKYNSAPLTFGGGTKVEIK", "koff", "0.00159 s⁻¹"),
    ("10H10 anti-CD70 scFv-Fc fusion (Fc fusion, scFv-Fc expressed in Expi293; not shown: part of the hinge and Fc from a modified human IgG2) EVQLVESGGGLVQPGGSLRLSCAVSGFTFSNHNIHWVRQAPGKGLEWISYISRSSSTIYYADSVKGRFTISRDNAKNSLYLQMNSLRDEDTAVYYCARDHAQWYGMDVWGQGTTVTVSSGGGGSGGGGSGGGGSGGGGSDIQMTQSPSSVSASVGDRVTITCRASQGISSWLAWYQQKPGKAPKVLIYAASSLQSGVPSRFSGSGSGTDFTLTISSLQPEDFATYYCQQAFSFPFTFGPGTKVDIK", "koff", "0.0032 s⁻¹"),
]

Moving on to the next binder.
Given the entry P12B09 anti-CD70 scFv-Fc fusion (Fc fusion, scFv-Fc expressed in Expi293; not shown: part of the hinge and Fc from a modified human IgG2) EVQLLESGGGLVQPGGSLRLSCAASGFTFSQYSMSWVRQAPGKGLEWVSAISGGGVSTYYADSVKGRFTISRDNSKNTLYLQMNSLRAEDTAVYYCASDISDSGGSHWYFDYWGQGTLVTVSSGGGGSGGGGSGGGGSGGGGSELDIQMTQSPSSLSASVGDRVTITCRASQYIGRYLNWYQQKRGKAPKLLIHGATSLASGVPSRFSGSGSGTDFTLTISSLQPEDFATYYCQQSYSTTSPTFGQGTKVEIK , report its measured koff.
0.00135 s⁻¹
